Each record here notes measured inhibition at 20 min, 10 µM.
- SYSTEM TESTED: CYP3A4 (Homo sapiens)
- Sequence (P08684 whole entry): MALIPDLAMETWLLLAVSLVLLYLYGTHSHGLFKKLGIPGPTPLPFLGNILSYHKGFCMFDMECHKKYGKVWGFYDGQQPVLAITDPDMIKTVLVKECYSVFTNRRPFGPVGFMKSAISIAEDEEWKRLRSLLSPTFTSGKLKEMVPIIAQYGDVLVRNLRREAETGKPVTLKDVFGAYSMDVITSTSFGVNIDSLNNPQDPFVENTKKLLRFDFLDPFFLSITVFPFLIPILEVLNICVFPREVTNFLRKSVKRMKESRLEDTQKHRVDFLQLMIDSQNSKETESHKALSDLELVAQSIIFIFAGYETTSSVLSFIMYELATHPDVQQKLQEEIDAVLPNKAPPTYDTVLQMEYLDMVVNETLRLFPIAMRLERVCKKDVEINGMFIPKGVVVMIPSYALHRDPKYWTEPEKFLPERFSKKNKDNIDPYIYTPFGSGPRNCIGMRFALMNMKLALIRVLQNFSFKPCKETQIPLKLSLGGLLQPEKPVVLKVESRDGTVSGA
- ASSAY PROCEDURE: Inhibition of CYP3A4 (unknown origin) at 10 uM incubated for 20 mins in presence of NADPH by LC/MS/MS analysis relative to control
- Format: ADME
Express the result in % but write the number alone.

Cc1ccc(-c2cc3c(cc2-c2ccc(C#N)cc2)c(C(=O)N2CCC(N)CC2)cn3S(=O)(=O)c2ccc(F)cc2)cc1; 56.8

Next compound, inhibition at 20 min, 10 µM to be filled in.
For the compound Cc1ccc(-c2cc3occ(CN4CCC[C@H](N)C4)c3cc2-c2ccc(C#N)cc2)cc1 , give its measured inhibition at 20 min, 10 µM value. 19

* * *

- SYSTEM TESTED: CYP2D6 (Homo sapiens)
- Sequence (P10635 whole entry): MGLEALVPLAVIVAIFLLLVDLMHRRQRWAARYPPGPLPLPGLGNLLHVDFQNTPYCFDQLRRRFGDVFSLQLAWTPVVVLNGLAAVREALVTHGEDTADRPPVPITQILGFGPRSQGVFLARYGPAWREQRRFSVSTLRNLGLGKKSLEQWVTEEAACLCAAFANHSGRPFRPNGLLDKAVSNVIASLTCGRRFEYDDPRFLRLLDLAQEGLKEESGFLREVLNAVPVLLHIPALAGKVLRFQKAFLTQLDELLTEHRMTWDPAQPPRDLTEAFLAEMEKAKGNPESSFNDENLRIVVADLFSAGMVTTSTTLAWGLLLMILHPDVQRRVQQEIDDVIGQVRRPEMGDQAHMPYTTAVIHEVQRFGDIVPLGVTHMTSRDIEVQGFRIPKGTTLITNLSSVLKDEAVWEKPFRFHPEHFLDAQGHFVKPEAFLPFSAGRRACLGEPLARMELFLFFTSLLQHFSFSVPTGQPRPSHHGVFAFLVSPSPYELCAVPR
- ASSAY PROCEDURE: Inhibition of CYP2D6 (unknown origin) at 10 uM incubated for 20 mins in presence of NADPH by LC/MS/MS analysis relative to control
- Format: ADME
ATTRIBUTE MEASURED: inhibition at 20 min, 10 µM (%)
Please reply with the bare figure in % and do not write the unit itself.

Cc1ccc(-c2cc3c(cc2-c2ccc(C#N)cc2)c(C(=O)N2CCC(N)CC2)cn3S(=O)(=O)c2ccc(F)cc2)cc1; 2.9

Please find the next molecule below.
Tell me measured inhibition at 20 min, 10 µM for Cc1ccc(-c2cc3occ(CN4CCC[C@H](N)C4)c3cc2-c2ccc(C#N)cc2)cc1 please. 88.6

* * *

- Test system: MCF7
- ASSAY PROCEDURE: cells
- RECORDED CONDITIONS: Homo sapiens, MCF7, 72 h
- Description: Antiproliferative activity against human MCF7 cells assessed as inhibition of cell growth incubated for 72 hrs by CCK-8 assay
Below, each entry is listed alongside its reported pIC50.
// pIC50 is dimensionless: -log10 of concentration (M)

Consider the reported pIC50 for these compounds:
Cc1ccc(-c2cc3[nH]cc(C(=O)N4CCC(N)CC4)c3cc2-c2ccc(C#N)cc2)cc1; 5.00
Cc1ccc(-c2cc3c(cc2-c2ccc(C#N)cc2)c(C(=O)N2CCC(N)CC2)cn3C)cc1; 5.15
Cc1ccc(-c2cc3c(cc2-c2ccc(C#N)cc2)c(C(=O)N2CCC(N)CC2)cn3S(=O)(=O)c2ccc(F)cc2)cc1; 5.47
Cc1cc(C)cc(-c2cc3[nH]cc(C(=O)N4CCC(N)CC4)c3cc2-c2ccc(C#N)cc2)c1; 5.15

Now let's try a different one.
Quote pIC50 reported for Cc1ccc(-c2cc3[nH]cc(C(=O)N4CCC(N)CC4)c3cc2-c2ccc(C#N)cc2)c(F)c1 please. 4.77

* * *

- SYSTEM TESTED: Lysine-specific histone demethylase 1A (Homo sapiens, UniProt O60341)
ATTRIBUTE MEASURED: Ki (µM)
Could you give me the number in µM? Just the number is fine.

Please give measured Ki of the following entry: Cc1ccc(-c2cc3c(cc2-c2ccc(C#N)cc2)c(C(=O)N2CCC(N)CC2)cn3S(=O)(=O)c2ccc(F)cc2)cc1 0.155

* * *

- ASSAY PROCEDURE: Tmax in Sprague-Dawley rat at 10 mg/kg,po by LC-MS/MS analysis
- Format: ADME, organism-based
- RECORDED CONDITIONS: in vivo
ATTRIBUTE MEASURED: Tmax (h)
Express the result in h but write the number alone.

Give reported Tmax value for Cc1ccc(-c2cc3c(cc2-c2ccc(C#N)cc2)c(C(=O)N2CCC(N)CC2)cn3S(=O)(=O)c2ccc(F)cc2)cc1 4
